Measured fold over background values are reported for all entries that follow.
biological target: T1, SARS-CoV-2 Spike RBD Y453F (SARS-CoV-2, UniProt P0DTC2 319-541); assay: HTRF, soluble RBD construct
T1 construct: domain: RBD
QUANTITY_MEASURED: fold over background (fold over background)

BINDER | DISPLAY_UNIT | NUMBER
PR194_00292 (antibody, V domains shown) VH: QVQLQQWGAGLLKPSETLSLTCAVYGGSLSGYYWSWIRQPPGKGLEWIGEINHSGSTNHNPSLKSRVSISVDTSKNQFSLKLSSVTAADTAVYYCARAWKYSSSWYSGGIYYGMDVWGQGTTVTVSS VL: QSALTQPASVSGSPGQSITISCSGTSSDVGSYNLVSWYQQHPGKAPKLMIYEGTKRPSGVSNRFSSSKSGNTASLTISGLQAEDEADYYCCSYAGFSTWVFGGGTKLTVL | fold over background | 0.974
PR194_00232 (antibody, V domains shown, also called IMM20190; PR194_00190) VH: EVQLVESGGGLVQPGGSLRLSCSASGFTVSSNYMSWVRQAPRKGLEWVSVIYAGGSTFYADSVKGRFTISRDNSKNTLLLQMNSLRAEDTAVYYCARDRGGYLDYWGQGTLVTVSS VL: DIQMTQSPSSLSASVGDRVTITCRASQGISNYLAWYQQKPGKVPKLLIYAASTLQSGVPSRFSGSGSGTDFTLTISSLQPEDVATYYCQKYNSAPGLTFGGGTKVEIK | fold over background | 5.94
PR193_00018 (antibody, V domains shown, also called IMM20184; IMM200184) VH: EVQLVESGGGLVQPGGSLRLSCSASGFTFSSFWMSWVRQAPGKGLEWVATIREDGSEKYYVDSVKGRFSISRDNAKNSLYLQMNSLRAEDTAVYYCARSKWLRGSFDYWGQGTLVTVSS VL: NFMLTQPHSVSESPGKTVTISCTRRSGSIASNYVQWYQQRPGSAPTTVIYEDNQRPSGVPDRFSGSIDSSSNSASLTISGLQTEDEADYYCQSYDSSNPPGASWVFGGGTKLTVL | fold over background | 4.74
PR197_00647 (antibody, V domains shown) VH: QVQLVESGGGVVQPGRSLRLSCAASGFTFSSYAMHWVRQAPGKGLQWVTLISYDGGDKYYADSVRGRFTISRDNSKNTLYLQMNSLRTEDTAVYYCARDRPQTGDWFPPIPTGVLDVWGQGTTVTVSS VL: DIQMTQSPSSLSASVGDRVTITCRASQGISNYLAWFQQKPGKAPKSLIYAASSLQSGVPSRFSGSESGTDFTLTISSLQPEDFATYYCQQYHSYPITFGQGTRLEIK | fold over background | 1.11
PR200_00622 (antibody, V domains shown, also called IMM20253; PR200_00253) VH: QVQLVESGGGVVQPGRSLRLSCTASGFTFSTYGMHWVRQAPGKGLEWVAVISYDGSSKHYAESVKGRFTISRDNSNNTLYLQMNRLRAEDTAVYYCARDGQPPGWGNYFDYWGQGTLVTVAS VL: SYVLTQPPSVSVAPGKTARITCGGNGIGSKSVYWYQQKPGQAPEVVVYDDSDRPSGIPERFSGSNSGNTATLTISRVEAGDEADYYCQVWDSSSDPWVFGGGTKLTVL | fold over background | 4.67
PR201_00151 (antibody, V domains shown) VH: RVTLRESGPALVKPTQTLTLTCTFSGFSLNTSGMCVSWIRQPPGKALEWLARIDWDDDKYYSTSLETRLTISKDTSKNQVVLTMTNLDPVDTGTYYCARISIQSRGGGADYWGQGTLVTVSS VL: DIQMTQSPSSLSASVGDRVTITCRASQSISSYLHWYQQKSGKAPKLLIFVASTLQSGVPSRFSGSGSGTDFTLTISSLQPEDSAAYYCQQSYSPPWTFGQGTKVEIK | fold over background | 5.48

This collection of values is drawn from patent US20220235118A1.
